Entries and their BaF3 TRKA-NGF CTG IC 50 values follow.
biological target: full length rTrkA and mNGF (Rattus norvegicus, UniProt P35739); construct: co-expressing full length rTrkA and mNGF; expressed in transfected cells; host or cells: Ba/F3 cells; assay: Inhibition of proliferation of Ba/F3 cells co-expressing full length rTrkA and mNGF (BaF3/TrkA-NFG); assay type: cell-based; details: BaF3 TRKA-NGF cells, CTG readout
Sequence (P35739 33-799): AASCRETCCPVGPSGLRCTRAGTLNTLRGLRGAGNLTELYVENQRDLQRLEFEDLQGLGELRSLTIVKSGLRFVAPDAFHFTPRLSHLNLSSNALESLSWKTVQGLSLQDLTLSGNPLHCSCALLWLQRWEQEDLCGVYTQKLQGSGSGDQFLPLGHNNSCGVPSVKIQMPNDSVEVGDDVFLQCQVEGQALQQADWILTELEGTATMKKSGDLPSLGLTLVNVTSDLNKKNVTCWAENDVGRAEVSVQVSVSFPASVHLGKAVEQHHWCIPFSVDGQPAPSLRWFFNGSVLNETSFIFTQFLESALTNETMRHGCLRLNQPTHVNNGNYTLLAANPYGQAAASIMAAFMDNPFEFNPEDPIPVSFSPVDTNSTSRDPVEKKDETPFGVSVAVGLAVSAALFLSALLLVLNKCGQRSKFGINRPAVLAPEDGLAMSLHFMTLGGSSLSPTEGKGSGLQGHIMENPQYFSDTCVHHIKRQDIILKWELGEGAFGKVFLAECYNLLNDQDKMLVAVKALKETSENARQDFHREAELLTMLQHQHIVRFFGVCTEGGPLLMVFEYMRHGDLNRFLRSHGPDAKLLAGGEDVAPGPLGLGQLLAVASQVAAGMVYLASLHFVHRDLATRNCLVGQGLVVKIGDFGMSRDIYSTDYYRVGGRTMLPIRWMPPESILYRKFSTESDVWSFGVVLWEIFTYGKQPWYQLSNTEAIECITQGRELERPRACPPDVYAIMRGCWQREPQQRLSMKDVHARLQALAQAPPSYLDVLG
Sequence (P01139 122-241 partner): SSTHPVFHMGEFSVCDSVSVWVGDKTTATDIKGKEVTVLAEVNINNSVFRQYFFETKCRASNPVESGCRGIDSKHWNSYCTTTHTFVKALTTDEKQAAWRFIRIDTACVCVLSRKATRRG
Report field: quantity (unit follows the number).

Consider the following illustrative entries.
OC1CCN(c2cccc(-c3cnc4ccc(N5CCOCC5c5cccc(F)c5)nn34)n2)CC1 (stereo not shown) [Table 7-Compound 1]; 30 nM
CC(F)C(=O)N(C)C1CCN(c2cccc(-c3cnc4ccc(N5CCCC5c5cccc(F)c5)nn34)n2)C1 (stereo not shown) [Table 7-Compound 201]; 20 nM
OC1CCN(Cc2cccc(-c3cnc4ccc(N5CCCC5c5cccc(F)c5)nn34)n2)C1 (stereo not shown) [Table 3-Compound 45]; 1020 nM
Cc1cnc(-c2cccc(-c3cnc4ccc(N5CCCC5c5cccc(F)c5)nn34)n2)[nH]1 (stereo not shown) [Table 7-Compound 3]; 19 nM
Cc1c[nH]c(C2CCN(c3cccc(-c4cnc5ccc(N6CCOCC6c6cccc(F)c6)nn45)n3)CC2)n1 (stereo not shown) [Table 7-Compound 143]; 31 nM

Query: Report BaF3 TRKA-NGF CTG IC 50 for Fc1cccc(C2CCCN2c2ccc3ncc(-c4cccc(C5OCCO5)n4)n3n2)c1 (stereo not shown) [Table 7-Compound 18] tested on full length rTrkA and mNGF (Rattus norvegicus, UniProt P35739).
Result: 64 nM

Query: Report BaF3 TRKA-NGF CTG IC 50 for C=CC1(O)CCN(c2cccc(-c3cnc4ccc(N5CCC[C@@H]5c5cccc(F)c5)nn34)n2)CC1 [Table 7-Compound 238] tested on full length rTrkA and mNGF (Rattus norvegicus, UniProt P35739).
Result: 35 nM
